These data points were gathered from ChEMBL document CHEMBL3779770.

Test system: Bacillus subtilis
TEST_NAME: Antibacterial activity against Bacillus subtilis NCIM 2079 after 12 hrs
Type: functional, organism-based
PROTOCOL_CONDITIONS: NCIM 2079, 12 h
I'd appreciate it if you could supply MIC values for the items below.

Sure, the documented MIC for O=C(/C=C\c1cccc(F)c1)N1N=C(c2ccncc2)OC1c1c[nH]c2ccccc12 (stereo not drawn) is > 256 µg/mL

Sure, the documented MIC for O=C(/C=C\c1ccc(O)cc1)N1N=C(c2ccncc2)OC1c1c[nH]c2ccccc12 (stereo not drawn) is > 256 µg/mL

Sure, the documented MIC for O=C(/C=C\c1ccc(Cl)cc1)N1N=C(c2ccncc2)OC1c1c[nH]c2ccccc12 (stereo not drawn) is > 256 µg/mL

====

System: Staphylococcus aureus
TEST_NAME: Antibacterial activity against Staphylococcus aureus NCIM 2010 after 12 hrs
Type: functional, organism-based
PROTOCOL_CONDITIONS: NCIM 2010, 12 h
PARAMETER: IC50

Sure, the documented IC50 for O=C(/C=C\c1ccc(Cl)cc1Cl)N1N=C(c2ccncc2)OC1c1c[nH]c2ccccc12 (stereo not drawn) is > 256 µg/mL

Sure, the documented IC50 for O=C(/C=C\c1ccc(Cl)cc1)N1N=C(c2ccncc2)OC1c1c[nH]c2ccccc12 (stereo not drawn) is > 256 µg/mL

Sure, the documented IC50 for O=C(/C=C\c1ccc(O)cc1)N1N=C(c2ccncc2)OC1c1c[nH]c2ccccc12 (stereo not drawn) is > 256 µg/mL

====

TEST_NAME: Cytotoxicity against human HeLa cells after 72 hrs by MTT assay
Type: cell-based
PROTOCOL_CONDITIONS: HeLa cells
I'd appreciate it if you could supply GI50 at 72 h values for the items below.

Sure, the documented GI50 at 72 h for O=C(/C=C\c1ccc([N+](=O)[O-])cc1)N1N=C(c2ccncc2)OC1c1c[nH]c2ccccc12 (stereo not drawn) is > 30 µg/mL

Sure, the documented GI50 at 72 h for O=C(/C=C\c1cccc(Cl)c1Cl)N1N=C(c2ccncc2)OC1c1c[nH]c2ccccc12 (stereo not drawn) is > 30 µg/mL

Sure, the documented GI50 at 72 h for O=C(/C=C\c1ccc(Br)cc1)N1N=C(c2ccncc2)OC1c1c[nH]c2ccccc12 (stereo not drawn) is > 30 µg/mL
